- Test system: Alopecurus myosuroides (ALOMY)
- MEASUREMENT_DESCRIPTION: Glasshouse herbicide test, pre- and post-emergence, Alopecurus myosuroides
- Assay type: in vivo
- CONDITION_LABEL: pre-emergence, 250 g/h, evaluated after 13 days
- Description: Seeds of a variety of test species are sown in standard soil in pots (Lolium perenne (LOLPE), Setaria faberi (SETFA), Alopecurus myosuroides (ALOMY), Echinochloa crus-galli (ECHCG), Avena fatua (AVEFA)). […] After 13 days for pre and post-emergence, the test is evaluated for the percentage damage caused to the plant. […]
OUTCOME_MEASURE: ALOMY PRE, percentage damage caused to the plant (five point scale)

CC#Cc1ccc(C2C(=O)[C@H]3[C@@H]4CC[C@@](C)(O4)[C@H]3C2=O)c(OC)c1 (mixture of isomers) [Compound 1.5] = 5 (5=80-100%)
CC#Cc1ccc(C2C(=O)[C@@H]3[C@@H]4O[C@@H](C[C@@H]4COC)[C@@H]3C2=O)c(OC)c1 (stereo in doubt) [Compound 1.19] = 5 (5=80-100%)
CC#Cc1ccc(C2C(=O)[C@H]3[C@@H]4CC[C@@](COC)(O4)[C@H]3C2=O)c(OC)c1 (mixture of isomers) = 5 (5=80-100%)
CC#Cc1ccc(C2C(=O)[C@@H]3[C@H](C2=O)[C@H]2CC[C@@H]3O2)c(OCCOC)c1 (mixture of isomers) = 1 (1=0-19%)
CC#Cc1ccc(C2C(=O)[C@@H]3[C@@H]4O[C@@H](C[C@@H]4COC)[C@@H]3C2=O)c(OC)c1 (mixture of isomers) [Compound 1.9] = 5 (5=80-100%)
CC#Cc1ccc(C2C(=O)[C@@H]3[C@@H]4O[C@@H](C[C@@H]4C4OCCO4)[C@@H]3C2=O)c(OC)c1 (mixture of isomers) = 4 (4=60-79%)

====

Measured ALOMY POST, percentage damage caused to the plant (five point scale), listed per entry.
- Tested on: Alopecurus myosuroides (ALOMY)
- MEASUREMENT_DESCRIPTION: Glasshouse herbicide test, pre- and post-emergence, Alopecurus myosuroides
- Type: in vivo
- CONDITION_LABEL: post-emergence, 250 g/h, evaluated after 13 days
OUTCOME_MEASURE: ALOMY POST, percentage damage caused to the plant (five point scale)

CC#Cc1ccc(C2C(=O)[C@@H]3[C@@H]4O[C@@H](C[C@@H]4C)[C@@H]3C2=O)c(OC)c1 (mixture of isomers) = 5 (5=80-100%)
CC#Cc1ccc(C2C(=O)[C@H]3[C@@H]4C=C[C@@](C)(O4)[C@H]3C2=O)c(OC)c1 (mixture of isomers) = 2 (2=20-39%)
CC#Cc1ccc(C2C(=O)[C@H]3[C@@H]4CC[C@@](C)(O4)[C@H]3C2=O)c(OC)c1 (stereo partly shown) [Compound 1.21] = 4 (4=60-79%)
CC#Cc1ccc(C2C(=O)[C@@H]3[C@H](C2=O)[C@H]2C=C(C)[C@@H]3O2)c(OC)c1 (mixture of isomers) = 5 (5=80-100%)
